# credit: patent US11339171B2

System: human osteosarcoma cell line SJSA-1
Assay: Inhibition of proliferation of human osteosarcoma cell line SJSA-1 (DAPI staining, In Cell Analyzer)
Settings: Homo sapiens, SJSA-1, 72 h, read-out: IC50 (nM), inhibitory activity on proliferation of human osteosarcoma cell line SJSA-1, SJSA-1, incubated 72 h
reported.endpoint: IC50 (nM)
API: value field is a number in nM; no unit string.

Request: Consider the molecule COc1cc(C2CC2)ccc1-c1nc2c(n1C(C)C)[C@@]1(C(=O)Nc3cc(Cl)ccc31)N(c1cccc(Cl)c1)C2=O . State its measured IC50.
Response: 213

Request: Consider the molecule COc1ccc(-c2nc3c(n2C(C)C)[C@@]2(C(=O)Nc4cc(Cl)ccc42)N(c2cc(Cl)ccc2C)C3=O)c(OC)n1 . State its measured IC50.
Response: 10.3

Request: Consider the molecule CCOc1ccc(-c2nc3c(n2C(C)C)[C@@]2(C(=O)Nc4cc(Cl)ccc42)N(c2cc(Cl)ccc2C)C3=O)c(OC)c1 . State its measured IC50.
Response: 77.3

----------
Experiment: Pharmacokinetics in ICR mice after intravenous and intragastric administration
Type: in vivo
Settings: male, ICR, mouse, plasma, po, 5 mg/kg, oral intragastric administration 5 mg/kg; read-out: AUC0-t
Classification scheme (AUC(0-t)): low-valued = under 6000 ng·h/mL, mid-valued = from 6000 ng·h/mL up to 10000 ng·h/mL, high-valued = 10000 ng·h/mL and over

COc1ccc(-c2nc3c(n2C(C)C)[C@@]2(C(=O)Nc4cc(Cl)ccc42)N(c2cc(Cl)cnc2C)C3=O)c(OC)c1 [Example S-61]	low-valued

Request: State the band of COc1cc(OC(C)C)ncc1-c1nc2c(n1C(C)C)[C@@]1(C(=O)Nc3cc(Cl)ccc31)N(c1cc(Cl)cnc1C)C2=O [Example S-137]
Response: high-valued

Request: State the band of CCOc1ncc(-c2nc3c(n2C(C)C)[C@@]2(C(=O)Nc4cc(Cl)ccc42)N(c2cc(Cl)cnc2C)C3=O)c(OC)n1 [Example S-134]
Response: mid-valued

Request: State the band of COc1cc(C(C)C)ccc1-c1nc2c(n1C(C)C)[C@@]1(C(=O)Nc3cc(Cl)ccc31)N(c1cc(Cl)ccc1C)C2=O [Example S-32]
Response: mid-valued

Request: State the band of COc1nc(C2CC2)ncc1-c1nc2c(n1C(C)C)[C@@]1(C(=O)Nc3cc(Cl)ccc31)N(c1cc(Cl)cnc1C)C2=O [Example S-159]
Response: low-valued

Request: State the band of COc1ncc(-c2nc3c(n2C(C)C)[C@H](c2ccc(Cl)cc2)N(c2cc(Cl)cn(C)c2=O)C3=O)c(OC)n1 [HDM201, reference compound]
Response: low-valued

Request: State the band of COc1cc(C2CC2)ncc1-c1nc2c(n1C(C)C)[C@@]1(C(=O)Nc3cc(Cl)ccc31)N(c1cc(Cl)ccc1C)C2=O [Example S-103]
Response: high-valued

----------
Assay: Pharmacokinetics in ICR mice after intravenous and intragastric administration
Assay type: in vivo
Conditions: male, ICR, mouse, plasma, iv, 2 mg/kg, IV 2 mg/kg, ICR mice, individual animal
log10 of AUC(0-inf): recorded values
Please note: log10 values; quantity AUC(0-inf); unit ng·h/mL.

Please review the entries below; each comes with its answer.
COc1cc(N(C)C)ccc1-c1nc2c(n1C(C)C)[C@@]1(C(=O)Nc3cc(Cl)ccc31)N(c1cc(Cl)ccc1C)C2=O	4.02
COc1ncc(-c2nc3c(n2C(C)C)[C@@]2(C(=O)Nc4cc(Cl)ccc42)N(c2cc(Cl)ccc2C)C3=O)c(OC)n1	3.19
COc1ncc(-c2nc3c(n2C(C)C)[C@@]2(C(=O)Nc4cc(Cl)ccc42)N(c2cccc(Cl)c2)C3=O)c(OC)n1	2.87
COc1cc(OC)c(-c2nc3c(n2C(C)C)[C@@]2(C(=O)Nc4cc(Cl)ccc42)N(c2cc(Cl)ccc2C)C3=O)cn1	3.51
COc1ncc(-c2nc3c(n2C(C)C)[C@H](c2ccc(Cl)cc2)N(c2cc(Cl)cn(C)c2=O)C3=O)c(OC)n1 [HDM201, reference compound]	2.79

Request: Consider the compound COc1ccc(-c2nc3c(n2C(C)C)[C@@]2(C(=O)Nc4cc(Cl)ccc42)N(c2cc(Cl)ccc2C)C3=O)c(OC)c1 . State its measured log10 of AUC(0-inf).
Response: 3.58

----------
half-life: recorded values
Assay: Pharmacokinetics in ICR mice after intravenous and intragastric administration
Type: in vivo
Conditions: male, ICR, mouse, plasma, po, 5 mg/kg, PO 5 mg/kg, ICR mice, individual animal; read-out: t1/2 (converted)
API: value field is a number in h; no unit string.

COc1cc(N(C)C)ccc1-c1nc2c(n1C(C)C)[C@@]1(C(=O)Nc3cc(Cl)ccc31)N(c1cc(Cl)ccc1C)C2=O	1.15
COc1ccc(-c2nc3c(n2C(C)C)[C@@]2(C(=O)Nc4cc(Cl)ccc42)N(c2cc(Cl)ccc2C)C3=O)c(OC)c1	1.57
COc1ncc(-c2nc3c(n2C(C)C)[C@@]2(C(=O)Nc4cc(Cl)ccc42)N(c2cccc(Cl)c2)C3=O)c(OC)n1	1.03
COc1ncc(-c2nc3c(n2C(C)C)[C@@]2(C(=O)Nc4cc(Cl)ccc42)N(c2cc(Cl)ccc2C)C3=O)c(OC)n1	1.45
COc1ncc(-c2nc3c(n2C(C)C)[C@H](c2ccc(Cl)cc2)N(c2cc(Cl)cn(C)c2=O)C3=O)c(OC)n1 [HDM201, reference compound]	1.34

Request: Consider the compound COc1cc(OC)c(-c2nc3c(n2C(C)C)[C@@]2(C(=O)Nc4cc(Cl)ccc42)N(c2cc(Cl)ccc2C)C3=O)cn1 . State its measured half-life.
Response: 2.18

----------
Read-out record for MDM2 (Homo sapiens, UniProt Q00987): pIC50
pIC50 here is simply -log10 of the concentration when that concentration is written in mol/L.

Please review the entries below; each comes with its answer.
CCOc1ncc(-c2nc3c(n2C(C)C)[C@@]2(C(=O)Nc4cc(Cl)ccc42)N(c2cc(F)cc(Cl)c2)C3=O)c(OC)n1	8.34
CCN(CC)c1ccc(-c2nc3c(n2C(C)C)[C@@]2(C(=O)Nc4cc(Cl)ccc42)N(c2cc(Cl)ccc2C)C3=O)c(OC)c1	7.95
COc1cc(OC(F)(F)F)ccc1-c1nc2c(n1C(C)C)[C@@]1(C(=O)Nc3cc(Cl)ccc31)N(c1cc(Cl)ccc1C)C2=O	8.48
COc1cc(N(C)C)ncc1-c1nc2c(n1C(C)C)[C@]1(C(=O)Nc3cc(Cl)ccc31)N(c1cccc(Cl)c1)C2=O	7.30
CCn1c(-c2cnc(OC)nc2OC)nc2c1[C@@]1(C(=O)Nc3cc(Cl)ccc31)N(c1cc(Cl)ccc1C)C2=O	8.63

Here is another compound to look at.
Request: Consider the compound COc1cc(OC2CC2)ncc1-c1nc2c(n1C(C)C)[C@]1(C(=O)Nc3cc(Cl)ccc31)N(c1cc(Cl)ccc1C)C2=O . State its measured pIC50.
Response: 6.15

----------
Experiment: Pharmacokinetics in ICR mice after intravenous and intragastric administration
Type: in vivo
Settings: male, ICR, mouse, plasma, po, 5 mg/kg, PO 5 mg/kg, ICR mice, Mean
Answer no if AUC(0-inf) is under 4000 ng·h/mL, and yes if it is 4000 ng·h/mL or more.

See these solved cases before continuing.
COc1ncc(-c2nc3c(n2C(C)C)[C@@]2(C(=O)Nc4cc(Cl)ccc42)N(c2cc(Cl)ccc2C)C3=O)c(OC)n1	no
COc1ncc(-c2nc3c(n2C(C)C)[C@@]2(C(=O)Nc4cc(Cl)ccc42)N(c2cccc(Cl)c2)C3=O)c(OC)n1	no
COc1cc(OC)c(-c2nc3c(n2C(C)C)[C@@]2(C(=O)Nc4cc(Cl)ccc42)N(c2cc(Cl)ccc2C)C3=O)cn1	yes

Request: I'd appreciate it if you could say whether COc1ncc(-c2nc3c(n2C(C)C)[C@H](c2ccc(Cl)cc2)N(c2cc(Cl)cn(C)c2=O)C3=O)c(OC)n1 [HDM201, reference compound] has AUC(0-inf) at least equal to 4000 ng·h/mL.
Response: no

Request: I'd appreciate it if you could say whether COc1ccc(-c2nc3c(n2C(C)C)[C@@]2(C(=O)Nc4cc(Cl)ccc42)N(c2cc(Cl)ccc2C)C3=O)c(OC)c1 has AUC(0-inf) at least equal to 4000 ng·h/mL.
Response: yes

Request: I'd appreciate it if you could say whether COc1cc(N(C)C)ccc1-c1nc2c(n1C(C)C)[C@@]1(C(=O)Nc3cc(Cl)ccc31)N(c1cc(Cl)ccc1C)C2=O has AUC(0-inf) at least equal to 4000 ng·h/mL.
Response: yes

----------
Test: Pharmacokinetics in ICR mice after intravenous and intragastric administration
Type: in vivo
Conditions: male, ICR, mouse, plasma, iv, 2 mg/kg, ICR mice, IV 2 mg/kg, mean of 3 animals
reported.endpoint: AUC(0-inf) (ng·h/mL)
API: value field is a number in ng·h/mL; no unit string.

Please review the entries below; each comes with its answer.
COc1cc(OC)c(-c2nc3c(n2C(C)C)[C@@]2(C(=O)Nc4cc(Cl)ccc42)N(c2cccc(Cl)c2)C3=O)cn1 [Example S-115]	2630
CCOc1cc(OC)c(-c2nc3c(n2C(C)C)[C@@]2(C(=O)Nc4cc(Cl)ccc42)N(c2cc(Cl)ccc2F)C3=O)cn1 [Example S-98]	10700
COc1cc(C(F)(F)F)ncc1-c1nc2c(n1C(C)C)[C@@]1(C(=O)Nc3cc(Cl)ccc31)N(c1cc(Cl)ccc1C)C2=O [Example S-138]	5940

Request: Consider the molecule COc1cc(C(C)C)ccc1-c1nc2c(n1C(C)C)[C@@]1(C(=O)Nc3cc(Cl)ccc31)N(c1cc(Cl)ccc1C)C2=O [Example S-32] . State its measured AUC(0-inf).
Response: 5500

Request: Consider the molecule COc1cc(OC)c(-c2nc3c(n2C(C)C)[C@@]2(C(=O)Nc4cc(Cl)ccc42)N(c2cc(Cl)ccc2F)C3=O)cn1 [Example S-133] . State its measured AUC(0-inf).
Response: 3660

Request: Consider the molecule CCOc1cc(OC)c(-c2nc3c(n2C(C)C)[C@@]2(C(=O)Nc4cc(Cl)ccc42)N(c2cc(Cl)cnc2C)C3=O)cn1 [Example S-96] . State its measured AUC(0-inf).
Response: 4410
